experiment: AUC (0 to t) in male BALB/c mouse at 2 mg/kg, iv; type: ADME, organism-based; parameters: dose 2 mg/kg, route iv; conditions: in vivo
assayEndpoint: AUC(0-t) (ng·h/mL)
Entry rule: numbers only, all in ng·h/mL.

Task item: Field request: AUC(0-t) | item: C=CC(=O)N1CCC(CNc2ncnc3[nH]cc(C(=O)N4CC(Oc5cccc(Cl)c5)C4)c23)CC1
Reply: 359

Task item: Field request: AUC(0-t) | item: CC#CC(=O)N1CCC(c2c[nH]c3ncnc(-c4ccc(CNC(=O)c5ccc(C(C)(C)C)cc5)c(F)c4)c23)CC1
Reply: 229

Task item: Field request: AUC(0-t) | item: C=CC(=O)N1CCC(CNc2ncnc3[nH]cc(C(=O)N4CC(Oc5cccc(F)c5)C4)c23)CC1
Reply: 539
